Data origin, for the record: the supplement of paper PMC7877785

Give self-splicing fitness (ln) for every item shown.
test: self-splicing fitness, log relative to wild type (ln ratio); higher = more splicing; Tetrahymena group I intron in knt gene, E. coli kanamycin selection, DiMSum; sequences stand for … in CUCUCU…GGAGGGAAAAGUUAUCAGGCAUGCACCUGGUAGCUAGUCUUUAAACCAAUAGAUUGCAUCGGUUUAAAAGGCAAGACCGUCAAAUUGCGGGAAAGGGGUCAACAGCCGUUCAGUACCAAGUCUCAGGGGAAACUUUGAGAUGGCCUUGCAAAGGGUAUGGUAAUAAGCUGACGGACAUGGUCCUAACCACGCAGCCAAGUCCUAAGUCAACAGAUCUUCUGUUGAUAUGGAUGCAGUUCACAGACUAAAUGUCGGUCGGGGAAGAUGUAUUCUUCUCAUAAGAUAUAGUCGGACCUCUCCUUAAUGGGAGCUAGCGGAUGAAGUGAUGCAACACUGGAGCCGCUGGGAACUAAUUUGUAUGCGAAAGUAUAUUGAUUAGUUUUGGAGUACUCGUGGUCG; conditions: 37 °C;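 further: selection with 25 µg/mL kanamycin versus none on LB agar overnight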

Guide cases for self-splicing fitness (ln), answers given:
| residueString | value |
| --- | --- |
| UAAAAGCAAUAUUACGCGCG | 0.0302 |
| AGUAAGCAAUAUUACGGUCU | -0.488 |
| UCAAAGCAAUAUUACGUGCC | -1.57 |
| UUUAAGCAAUAUUACGAGCA | -0.686 |
| CCGUAGCAAUAUUACGAUUA | -1.86 |
| AGAAAGCAAUAUUACGACCG | 0.0491 |
| GUACAGCAAUAUUACGCAUC | -1.36 |
| GAGUAGCAAUAUUACGGAUU | -0.46 |

Please supply self-splicing fitness (ln) for each of the following items, keeping them in order.
1. CAGCAGCAAUAUUACGAUGA
2. CACAAGCAAUAUUACGACGC
3. CCCCAGCAAUAUUACGUACU
4. GUAAAGCAAUAUUACGGGAG
5. CGGUAGCAAUAUUACGUCUG
6. AAAGAGCAAUAUUACGUAAU
7. UGGCAGCAAUAUUACGGGCA
8. AUUGAGCAAUAUUACGGCCG

A)
1. -1.31
2. -1.17
3. -2.67
4. -1.67
5. -0.338
6. 0.0244
7. -0.0149
8. -0.636
